- tested-on: UniProt:Q9H3N8
- Sequence (Q9H3N8 whole entry): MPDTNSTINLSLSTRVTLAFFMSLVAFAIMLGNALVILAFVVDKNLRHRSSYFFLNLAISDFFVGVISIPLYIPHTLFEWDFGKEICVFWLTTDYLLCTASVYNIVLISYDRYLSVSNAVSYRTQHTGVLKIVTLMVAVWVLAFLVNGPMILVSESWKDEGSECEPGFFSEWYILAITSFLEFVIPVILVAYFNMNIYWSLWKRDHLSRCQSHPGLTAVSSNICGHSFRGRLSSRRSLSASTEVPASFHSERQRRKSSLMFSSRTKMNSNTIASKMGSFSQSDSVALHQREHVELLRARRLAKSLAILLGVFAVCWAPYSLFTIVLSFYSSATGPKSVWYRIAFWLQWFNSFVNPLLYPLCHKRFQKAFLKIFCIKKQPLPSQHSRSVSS
I'd be grateful if you could share measured Ki for these entries.
Write down the value, and be sure its unit follows.

N=C(N)SCCSC(=N)N = 251 nM
N=C(N)NCCNC(=N)N = 398 nM
N=C(N)NCCCSC(=N)N = 7940 nM

Kindly consider the entry below.
Req: Please provide the recorded Ki for N=C(N)NCCCCSC(=N)N , tested on UniProt:Q9H3N8.
Resp: 3160 nM

###

- tested-on: Histamine H3 receptor (Homo sapiens, UniProt Q9Y5N1)
- Sequence (Q9Y5N1 whole entry): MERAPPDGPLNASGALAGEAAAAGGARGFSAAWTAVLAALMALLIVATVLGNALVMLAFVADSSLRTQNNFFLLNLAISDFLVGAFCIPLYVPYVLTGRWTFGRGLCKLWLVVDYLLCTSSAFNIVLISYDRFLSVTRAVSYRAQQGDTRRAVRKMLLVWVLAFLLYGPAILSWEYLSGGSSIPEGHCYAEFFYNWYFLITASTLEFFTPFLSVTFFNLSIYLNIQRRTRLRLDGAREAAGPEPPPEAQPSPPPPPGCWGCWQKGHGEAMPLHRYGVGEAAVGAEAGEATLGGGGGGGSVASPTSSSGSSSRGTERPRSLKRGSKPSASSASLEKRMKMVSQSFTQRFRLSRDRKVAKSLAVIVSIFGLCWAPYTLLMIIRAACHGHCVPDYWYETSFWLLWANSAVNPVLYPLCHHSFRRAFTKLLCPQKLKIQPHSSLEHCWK
value-kind: pKi
Answers are plain numbers, as −log10 of the molar value.

Req: Name the recorded pKi for N=C(N)NCCSC(=N)N .
Resp: 6.00
